Tested on: HL-60
Assay: NCI tumour cell line growth inhibition, 48 h
Activity calls are given as the source filed them. Cut-off read from the data, not from the text of the source: active = GI50 up to about 1.1 µM and inactive = higher.
Would you kindly list GI50 for each of these compounds?

Entry under review: O=C(O)c1cc2ccccc2c(O)c1O . Reported GI50?
19.4 µM (inactive)

Entry under review: CCCCCc1cccc(=O)o1 . Reported GI50?
> 100 µM (inactive)

Entry under review: C1=Nc2sc3c(c2C2=NCCN12)CCCC3 . Reported GI50?
13.6 µM (inactive)

Entry under review: C#CC(C)(C)Oc1cc(O)c2c(=O)c3ccccc3n(C)c2c1 . Reported GI50?
> 100 µM (inactive)

Entry under review: COC1(C2c3ccccc3CCN2C(=O)OC(C)(C)C)C(=O)C(c2ccccc2)=C1N(C)C (stereo unspecified) . Reported GI50?
19.7 µM (inactive)

Entry under review: CSc1ccc(/C=C2\N=C(c3ccccc3)N(c3nc4cc(Cl)c(F)cc4s3)C2=O)cc1 . Reported GI50?
38.3 µM (inactive)

Entry under review: CCOP(=O)(OCC)/C(C#N)=C/c1c[nH]c2ccccc12 . Reported GI50?
> 100 µM (inactive)

Entry under review: O=C(Cc1ccccc1)NN1C(=O)C(Cl)C1c1cccc([N+](=O)[O-])c1 (stereo unspecified) . Reported GI50?
10.4 µM (inactive)

Entry under review: COc1ccc(C)cc1-c1cc(Sc2ccccc2)c(-c2cc(C)ccc2OC)o1 . Reported GI50?
> 31.6 µM (inactive)

Entry under review: COC1(OC)C2(Cl)C(Cl)=C(Cl)C1(Cl)C1C2C2CC1(C(=O)O)c1ccccc12 (stereo unspecified) . Reported GI50?
22.1 µM (inactive)

Entry under review: CC(C)(C)C1CCC2c3c([nH]c4ccccc34)C3C(=O)N(c4ccc(Br)cc4)C(=O)C3C2C1 (stereo unspecified) . Reported GI50?
13.3 µM (inactive)

Entry under review: Cc1cc(S(=O)(=O)O)ccc1/N=N/c1c(O)ccc2ccccc12 . Reported GI50?
> 100 µM (inactive)

Entry under review: CC(=O)OC(C(=O)O)C(OC(C)=O)C(OC(C)=O)C(OC(C)=O)C(=O)O (stereo unspecified) . Reported GI50?
> 100 µM (inactive)

Entry under review: Cn1nc2n(c1=O)CCCN2 . Reported GI50?
> 100 µM (inactive)

Entry under review: CC1=NN(C(=O)CC(=O)Nc2ccccc2)C(=O)C1/N=N/c1ccc(S(N)(=O)=O)cc1 (stereo unspecified) . Reported GI50?
18 µM (inactive)

Entry under review: O=C(N[C@H]1CCC[C@H]1C(=O)Nc1ccc(C(F)(F)F)cc1)OCc1ccccc1 . Reported GI50?
> 100 µM (inactive)

---

System: SK-MEL-2
Experiment: NCI tumour cell line growth inhibition, 48 h
Activity calls are given as the source filed them. No stated cut-off is given here; in the data, active = GI50 up to about 1.1 µM and inactive = higher.
// classify into yes (1) (active), no (0) (inactive)

What did this assay record as the result for CC(C#N)Nc1ccc(Oc2ccc(C(C)(C)c3ccc(Oc4ccc(NC(C)C#N)cc4)cc3)cc2)cc1 (stereo unspecified) ?
no (0)

What did this assay record as the result for COc1cc2cc(C(=O)N3CC(CCl)c4c3cc(N(C)C)c3ccccc43)[nH]c2c(OC)c1OC (stereo unspecified) ?
yes (1)

What did this assay record as the result for COC(=O)C(=C/c1ccc(OC)cc1)/C(C(=O)O)=C(/C)c1ccccc1 ?
no (0)

What did this assay record as the result for NS(=O)(=O)c1cc2c(cc1Cl)NC(/C(=N/NC(=O)c1ccncc1)C1C(=O)NC(=O)NC1=O)=NS2(=O)=O ?
no (0)

What did this assay record as the result for C=C1CC2OC(=O)C(=C)C2C(O)C2C(=C)CCC12 (stereo unspecified) ?
no (0)

What did this assay record as the result for CSc1nc2ccccc2c(=O)n1/N=C1\C(=O)N(CN2CCOCC2)c2ccc(Cl)cc21 ?
no (0)

What did this assay record as the result for O=C(CSc1ncccn1)N/N=C/c1ccccc1OCc1ccccc1 ?
no (0)

What did this assay record as the result for O=C(c1ccccc1)N1C(=S)N(c2ccccn2)C(=N/c2ccccc2)/C1=N\c1ccccc1 ?
no (0)

What did this assay record as the result for Sc1nnc(/C=C/c2ccc(Cl)c(Cl)c2)[nH]1 ?
no (0)

What did this assay record as the result for Cc1cccc(Nc2nc3ccccc3nc2NS(=O)(=O)c2ccccc2)c1 ?
no (0)

What did this assay record as the result for CC1C[C@]2(C[C@@H](C)C(=O)O2)OC2CC3(C)C4CCC5C(C)(C)OC(=O)CC[C@@]56C[C@@]46CC[C@]3(C)C12 (stereo partly specified) ?
no (0)

What did this assay record as the result for O=S(=O)(O)C(Cc1nc2ccccc2[nH]1)S(=O)(=O)OCCC1S(=O)(=O)OCCOS1(=O)=O (stereo unspecified) ?
no (0)

What did this assay record as the result for Cc1cccc(C)c1NC(=O)C(=O)Nn1c(NN)nc2ccccc2c1=O ?
no (0)

What did this assay record as the result for O=C(c1ccccc1)N1CCc2c([nH]c3ccccc23)C1 ?
no (0)

What did this assay record as the result for Clc1ccc(OCc2nnc(CCCCCCCCc3nnc(COc4ccc(Cl)cc4Cl)n3Nc3ccccc3)n2Nc2ccccc2)c(Cl)c1 ?
no (0)

What did this assay record as the result for OC12CC3c4ccccc4NC3C3Oc4cccc5c4C31CCN(CC1CC1)C2C5 (stereo unspecified) ?
no (0)

What did this assay record as the result for CC(=O)c1cc2c(s1)C(=O)c1sccc1C2=O ?
yes (1)

What did this assay record as the result for CN(C)/N=N/c1nc2c(c(=O)n(C)c(=O)n2C)n1CC1CO1 (stereo unspecified) ?
no (0)

What did this assay record as the result for CCCCCCSc1nc(COC(=O)NC)c(COC(=O)NC)n1C ?
no (0)

What did this assay record as the result for CC(=O)N1CCn2c1nc1cc(Cl)ccc12 ?
no (0)

What did this assay record as the result for O=C(O)CC1OCC=C2CN3CCC45C6=CC(=O)C(O)=C([N+](=O)[O-])C6=NC4C1C2CC35 (stereo unspecified) ?
no (0)

---

Test system: SNB-19
Assay: NCI tumour cell line growth inhibition, 48 h
Active and inactive are the calls of the source. No stated cut-off is given here; in the data, active = GI50 up to about 1.1 µM and inactive = higher.
Would you kindly list GI50 for each of these compounds?

Entry under review: OC12CC3c4ccccc4NC3C3Oc4cccc5c4C31CCN(CC1CC1)C2C5 (stereo not given) . Reported GI50?
18.2 µM (inactive)

Entry under review: Cc1cc2nc(N3C(=O)/C(=C/c4ccc(N(C)C)cc4)N=C3c3ccccc3)sc2cc1C . Reported GI50?
54.6 µM (inactive)

Entry under review: C=C(c1ccccc1N)[C@@]1(O)C[C@H](/C(=C\C)CO)C[C@@H]1NCc1ccccc1 . Reported GI50?
23.2 µM (inactive)

Entry under review: Cc1cccc(Nc2nc3ccccc3nc2NS(=O)(=O)c2ccccc2)c1 . Reported GI50?
18.1 µM (inactive)

Entry under review: CC(C)(C)OC(=O)NC(CO)c1cccc(OCc2ccccc2)c1 (stereo not given) . Reported GI50?
> 81.7 µM (inactive)

---

System: DLD-1
Test: NCI tumour cell line growth inhibition, 48 h
Calls of active or inactive are those of the source. Cut-off read from the data, not from the text of the source: active = GI50 up to about 1.1 µM and inactive = higher.
Would you kindly list GI50 for each of these molecules?

Entry under review: O=C1CCCc2ccc([N+](=O)[O-])c(O)c21 . Reported GI50?
> 100 µM (inactive)

Entry under review: CC(C)NC1CCCCC2c3cc(F)ccc3[C@]12O (stereo partly specified) . Reported GI50?
> 100 µM (inactive)

Entry under review: N#C/C(=C\c1cccc(O)c1O)C(N)=O . Reported GI50?
45.4 µM (inactive)

Entry under review: NC(=O)C12CC3CC(CC(Br)(C3)C1)C2 . Reported GI50?
> 100 µM (inactive)

Entry under review: COc1cc(Nc2cnc3cc(C(F)(F)F)ccc3n2)cc(OC)c1OC . Reported GI50?
> 100 µM (inactive)

Entry under review: CCCCCCCCCCCC1=C(O)C(=O)C=C(O)C1=O . Reported GI50?
8.49 µM (inactive)

---

System: M19-MEL
Experiment: NCI tumour cell line growth inhibition, 48 h
Activity calls are given as the source filed them. Cut-off read from the data, not from the text of the source: active = GI50 up to about 1.1 µM and inactive = higher.
Would you kindly list GI50 for each of these compounds?

Checklist item: GI50 tested on M19-MEL, entry CC(C)(C)NN=C1C(C)(C)C(=NNC(C)(C)C)C1(C)C , value?
> 100 µM (inactive)

Checklist item: GI50 tested on M19-MEL, entry C[C@]12CC/C(=N\OC(=O)Nc3ccccc3)C=C1CC[C@@H]1C2CC[C@@]2(C)C1CC[C@@H]2OC(=O)Nc1ccccc1 (stereo not given in full) , value?
66.4 µM (inactive)

Checklist item: GI50 tested on M19-MEL, entry CC1=CC(C)(c2c[nH]c3ccccc23)CC(C)(C)c2c1[nH]c1ccccc21 (stereo not given) , value?
19.7 µM (inactive)

Checklist item: GI50 tested on M19-MEL, entry Nc1ccc(C(=O)NN2C(=O)C(Cl)C2c2ccccc2Cl)cc1 (stereo not given) , value?
7.94 µM (inactive)

Checklist item: GI50 tested on M19-MEL, entry C=C1C(=O)OC2C/C(C)=C/CC/C(C)=C/CCC3(COC(C)=O)OC3CC12 (stereo not given) , value?
13.1 µM (inactive)

Checklist item: GI50 tested on M19-MEL, entry O=C1C2C3C=C4c5ccccc5N(c5ccccc5)C4([C@@H]2C(=O)N1c1ccc(F)cc1)[C@H]1C(=O)N(c2ccc(F)cc2)C(=O)[C@@H]31 (stereo not given in full) , value?
> 100 µM (inactive)

Checklist item: GI50 tested on M19-MEL, entry Oc1ncnc2c1nnn2CCCCCCCCCCCCn1nnc2c(O)ncnc21 , value?
> 100 µM (inactive)

Checklist item: GI50 tested on M19-MEL, entry CC1(C)CC(Nc2ccc(Nc3ccccc3)cc2)CC(C)(C)N1 , value?
35.2 µM (inactive)

Checklist item: GI50 tested on M19-MEL, entry Cc1cc(N(CCC#N)CCC#N)ccc1/C=N\c1ccc(C(=O)NN2C(=O)/C(=C/c3ccc(N(CCC#N)CCC#N)cc3)N=C2c2cc([N+](=O)[O-])ccc2Cl)cc1 , value?
> 100 µM (inactive)

Checklist item: GI50 tested on M19-MEL, entry O=C(c1ccccc1)c1nc2ccc(Cl)cc2c2c1Cc1ccccc1-2 , value?
> 100 µM (inactive)

Checklist item: GI50 tested on M19-MEL, entry C=C(CN(C)C)C(=O)c1ccc(C(=O)C(=C)CN(C)C)cc1 , value?
> 100 µM (inactive)

Checklist item: GI50 tested on M19-MEL, entry CC(C)(C)OC(=O)NC(CO)c1cccc(OCc2ccccc2)c1 (stereo not given) , value?
> 89.7 µM (inactive)

Checklist item: GI50 tested on M19-MEL, entry COC(=O)N1[C@H]2Cc3c(OC)c(C)c(OC)c(OC)c3[C@@H]1/C(=C\c1cc(OC)c(OC)c(C)c1OC)N(Cc1ccccc1)C2=O , value?
19.9 µM (inactive)

Checklist item: GI50 tested on M19-MEL, entry COC(=O)C1CC(C(=O)OC)c2nc3cc([N+](=O)[O-])ccc3nc21 (stereo not given) , value?
61 µM (inactive)

Checklist item: GI50 tested on M19-MEL, entry O=c1cnn(C2OC(CO)C(O)C2O)c(=S)[nH]1 (stereo not given) , value?
43.1 µM (inactive)

Checklist item: GI50 tested on M19-MEL, entry Cn1cnc([N+](=O)[O-])c1SC1=NCCS1 , value?
49.4 µM (inactive)

Checklist item: GI50 tested on M19-MEL, entry CCOC(=O)C1Oc2ccc([N+](=O)[O-])c3c2C1(O)CCC3 (stereo not given) , value?
> 100 µM (inactive)

Checklist item: GI50 tested on M19-MEL, entry Cc1cccc(C)c1NC(=O)C(=O)Nn1c(NN)nc2ccccc2c1=O , value?
> 100 µM (inactive)

Checklist item: GI50 tested on M19-MEL, entry C=CCC1([C@H](C)[C@@H](OC(C)=O)c2cc(OC)c(OC)c(OC)c2)C[C@@H](OC)CCC1=O (stereo not given in full) , value?
15.6 µM (inactive)

Checklist item: GI50 tested on M19-MEL, entry CCSC1(SCC)CCN(/C=N/C(C)(C)C)C1 , value?
> 100 µM (inactive)
